For each record, write down the corresponding inhibition at 2 µM.
Target: human Cereblon WT GST-tagged protein (Homo sapiens)
Construct: purchased CISBIO 64BDCRBNPEH
Experiment: CRBN-binding affinity, HTRF (CEREBLON BINDING kit)
Conditions: read-out: Inhibition Rate at 2 µM (%)

Known results for molecules:
molecule	inhibition at 2 µM
Cc1cc(S(=O)(=O)N2CCN(Cc3ccc4c(c3)CN(C3CCC(=O)NC3=O)C4=S)CC2)ccc1Nc1ncc(Br)c(Nc2cccc(F)c2C(N)=O)n1 (stereo not shown)	60 to 80%
CN(C)C(=O)c1cc2cnc(Nc3ccc(N4CCN(Cc5ccc6c(c5)C(=S)N(C5CCC(=O)NC5=O)C6)CC4)cn3)nc2n1C1CCCC1 (stereo not shown)	80 to 100%
Nc1nnc(-c2cc(F)ccc2O)cc1N1CC2CCC(C1)N2Cc1ccc2c(c1)C(=S)N(C1CCC(=O)NC1=O)C2 (stereo not shown)	80 to 100%
COc1cc(N2CCC(N3CCN(Cc4ccc5c(c4)CN(C4CCC(=O)NC4=O)C5=S)CC3)CC2)c(C)cc1Nc1ncc(Br)c(Nc2ccc3nccnc3c2P(C)(C)=O)n1 (stereo not shown)	80 to 100%
O=C1CCC(N2Cc3c(CN4CCC(n5cc(NC(=O)c6cnn7ccc(N8CCOCC8)nc67)c(C(F)F)n5)CC4)cccc3C2=S)C(=O)N1 (stereo not shown)	80 to 100%
O=C1CCC(N2Cc3cc(CN4CCN(c5ccc(-c6ccc7c8cnccc8n(C(F)F)c7c6)cn5)CC4)ccc3C2=S)C(=O)N1 (stereo not shown)	60 to 80%

// next entry
Q. So what's the measured inhibition at 2 µM for this one? COc1cc(N2CCN(Cc3ccc4c(c3)CN(C3CCC(=O)NC3=O)C4=S)CC2)ccc1Nc1ncc(Cl)c(Nc2ccccc2P(C)(C)=O)n1 (stereo not shown)
A. 80 to 100%

###

Molecular target: human Cereblon WT GST-tagged protein (Homo sapiens, UniProt Q96SW2)
Construct: purchased CISBIO 64BDCRBNPEH
Sequence (Q96SW2 whole entry): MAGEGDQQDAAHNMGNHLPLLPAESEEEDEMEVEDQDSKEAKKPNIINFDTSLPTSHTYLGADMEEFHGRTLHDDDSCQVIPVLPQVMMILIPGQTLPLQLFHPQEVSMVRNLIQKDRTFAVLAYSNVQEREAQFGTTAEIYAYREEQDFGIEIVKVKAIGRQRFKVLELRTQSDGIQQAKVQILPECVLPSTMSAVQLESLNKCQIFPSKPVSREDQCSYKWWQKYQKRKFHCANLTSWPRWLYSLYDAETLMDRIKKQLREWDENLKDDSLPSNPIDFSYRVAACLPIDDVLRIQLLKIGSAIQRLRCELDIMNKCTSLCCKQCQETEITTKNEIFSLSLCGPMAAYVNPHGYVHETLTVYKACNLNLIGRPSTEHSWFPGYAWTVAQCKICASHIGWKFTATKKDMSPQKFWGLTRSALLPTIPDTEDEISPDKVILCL
Assay: CRBN-binding affinity, HTRF (CEREBLON BINDING kit)
Details: read-out: Inhibition Rate at 0.5 µM (%)
For each record, write down the corresponding inhibition at 0.5 µM.

Known results for compounds:
compound	inhibition at 0.5 µM
COc1cc(N2CCC(N3CCN(Cc4ccc5c(c4)CN(C4CCC(=O)NC4=O)C5=S)CC3)CC2)c(C)cc1Nc1ncc(Br)c(Nc2ccc3nccnc3c2P(C)(C)=O)n1 (stereo not shown)	80 to 100%
COc1cc(N2CCC(N(C)Cc3ccc4c(c3)C(=S)N(C3CCC(=O)NC3=O)C4)CC2)ccc1Nc1ncc(Cl)c(Nc2ccccc2P(C)(C)=O)n1 (stereo not shown)	60 to 80%
N#CC1(CNc2cccc(-c3cc(NC4CCN(Cc5ccc6c(c5)CN(C5CCC(=O)NC5=O)C6=S)CC4)ncc3Cl)n2)CCOCC1 (stereo not shown)	40 to 53%
COc1cc(N2CCC(N3CCN(Cc4ccc5c(c4)C(=S)N(C4CCC(=O)NC4=O)C5)CC3)CC2)c(C)cc1Nc1ncc(Br)c(Nc2ccc3nccnc3c2P(C)(C)=O)n1 (stereo not shown)	60 to 80%
CC1(C)CCC(c2ccc(Cl)cc2)=C(CN2CCN(c3ccc(C(=O)NS(=O)(=O)c4ccc(N[C@H](CCN5CCN(Cc6ccc7c(c6)CN(C6CCC(=O)NC6=O)C7=S)CC5)CSc5ccccc5)c(S(=O)(=O)C(F)(F)F)c4)cc3)CC2)C1 (stereo partly shown)	53 to 60%
CN(c1nccnc1CNc1nc(Nc2ccc(N3CCN(Cc4cccc5c4CN(C4CCC(=O)NC4=O)C5=S)CC3)cc2)ncc1C(F)(F)F)S(C)(=O)=O (stereo not shown)	40 to 53%
Nc1nnc(-c2cc(F)ccc2O)cc1N1CCN(Cc2ccc3c(c2)C(=S)N(C2CCC(=O)NC2=O)C3)CC1 (stereo not shown)	60 to 80%
Nc1nnc(-c2ccccc2O)cc1N1CCN(Cc2cccc3c2CN(C2CCC(=O)NC2=O)C3=S)CC1 (stereo not shown)	53 to 60%

Dear colleague, could you please provide inhibition at 0.5 µM for the compounds listed below?
1. CCc1cc2c(cc1N1CCC(N3CCN(Cc4ccc5c(c4)CN(C4CCC(=O)NC4=O)C5=S)CC3)CC1)C(C)(C)c1[nH]c3cc(C#N)ccc3c1C2=O (stereo not shown)
2. COc1cc2nn(C3CCN(Cc4cccc5c4CN(C4CCC(=O)NC4=O)C5=S)CC3)cc2cc1NC(=O)c1cccc(C(F)(F)F)n1 (stereo not shown)
3. COc1cc(N2CCC(N(C)Cc3ccc4c(c3)C(=S)N(C3CCC(=O)NC3=O)C4)CC2)c(C)cc1Nc1ncc(Br)c(Nc2ccc3nccnc3c2P(C)(C)=O)n1 (stereo not shown)
4. CN(C)C(=O)c1cc2cnc(Nc3ccc(N4CCN(Cc5cccc6c5CN(C5CCC(=O)NC5=O)C6=S)CC4)cn3)nc2n1C1CCCC1 (stereo not shown)
5. Cn1c2ccncc2c2ccc(-c3cnc(N4CCN(Cc5ccc6c(c5)CN(C5CCC(=O)NC5=O)C6=S)CC4)c(Cl)c3)cc21 (stereo not shown)
6. Cc1cc(-c2nc(C(=O)Nc3cc4oc(N5CCN(Cc6ccc7c(c6)CN(C6CCC(=O)NC6=O)C7=S)CC5)nc4nc3N3CC[C@@H](O)C3)co2)ccn1 (stereo partly shown)
7. CCN(c1cc(-c2ccc(CN3CCN(Cc4ccc5c(c4)CN(C4CCC(=O)NC4=O)C5=S)CC3)cc2)cc(C(=O)NCc2c(C)cc(C)[nH]c2=O)c1C)C1CCOCC1 (stereo not shown)

A.
["40 to 53%", "40 to 53%", "60 to 80%", "60 to 80%", "60 to 80%", "60 to 80%", "53 to 60%"]

###

Biological target: human Cereblon WT GST-tagged protein (Homo sapiens)
Construct: purchased CISBIO 64BDCRBNPEH
Assay: CRBN-binding affinity, HTRF (CEREBLON BINDING kit)
Conditions: read-out: Inhibition Rate at 2 µM (%)
Excerpt: The CEREBLON BINDING kits (specification: 10,000 tests; product number: Catalog # 64BDCRBNPEH; CISBIO company) was used to determine the CRBN binding ability of the compounds to be tested through a HTRF method (homogeneous time-resolved fluorescence). The specific methods are as follows: • 1. […] Specifically, diluent #9 (1X) solution was used as the diluent, and multiple concentration gradients were set. […]
For each record, write down the corresponding inhibition at 2 µM.

molecule	target.or.system	inhibition at 2 µM
Nc1nnc(-c2ccccc2O)cc1N1CCN(Cc2cccc3c2CN(C2CCC(=O)NC2=O)C3=S)CC1 (stereo not shown)	human Cereblon WT GST-tagged protein (Homo sapiens)	80 to 100%

Dear colleague, could you please provide inhibition at 2 µM for the molecules listed below?
1. O=C1CCC(N2Cc3cc(CN4CCC(NC(=O)c5n[nH]cc5NC(=O)c5c(Cl)cccc5Cl)CC4)ccc3C2=S)C(=O)N1 (stereo not shown)
2. O=C1CCC(N2Cc3cc(CN4CCC(n5cc(NC(=O)c6coc(-c7ccnc(NCC(F)(F)F)c7)n6)c(C(F)F)n5)CC4)ccc3C2=S)C(=O)N1 (stereo not shown)
3. COC1CCN(c2nccc(Nc3cc4c(cn3)c(N3CCN(Cc5ccc6c(c5)C(=S)N(C5CCC(=O)NC5=O)C6)CC3)nn4C(C)C)n2)CC1 (stereo not shown)

A.
1: 80 to 100%; 2: 60 to 80%; 3: 80 to 100%

###

For each record, write down the corresponding inhibition at 0.5 µM.
Biological target: human Cereblon WT GST-tagged protein (Homo sapiens)
Construct: purchased CISBIO 64BDCRBNPEH
Experiment: CRBN-binding affinity, HTRF (CEREBLON BINDING kit)
Conditions: read-out: Inhibition Rate at 0.5 µM (%)

Known results for molecules:
molecule	target.or.system	readout.type	obs.value
Cn1ncc(-c2nc(NC3CCN(Cc4ccc5c(c4)C(=S)N(C4CCC(=O)NC4=O)C5)CC3)ncc2Cl)c1CC1CC1 (stereo not shown) [GT-08751]	human Cereblon WT GST-tagged protein (Homo sapiens)	inhibition at 0.5 µM	40 to 53%
C[C@@H]1CNC(=O)c2cc3ccc(C(=O)Nc4cnn(Cc5ccc(N6CCC(N7CCN(Cc8ccc9c(c8)CN(C8CCC(=O)NC8=O)C9=S)CC7)CC6)cc5)c4)nc3n21 (stereo partly shown) [GT-08778]	human Cereblon WT GST-tagged protein (Homo sapiens)	inhibition at 0.5 µM	80 to 100%
O=C1CCC(N2Cc3cc(CN4CCC(NC(=O)c5n[nH]cc5NC(=O)c5c(Cl)cccc5Cl)CC4)ccc3C2=S)C(=O)N1 (stereo not shown) [GT-09434]	human Cereblon WT GST-tagged protein (Homo sapiens)	inhibition at 0.5 µM	53 to 60%

// next entry
Q. So what's the measured inhibition at 0.5 µM for this one? Nc1ncnc2c1c(-c1ccc(Oc3ccccc3)cc1)nn2C1CCN(Cc2cccc3c2CN(C2CCC(=O)NC2=O)C3=S)CC1 (stereo not shown) [GT-05074]
A. 40 to 53%
